B1: library; numbered along this chain (parent)
chain: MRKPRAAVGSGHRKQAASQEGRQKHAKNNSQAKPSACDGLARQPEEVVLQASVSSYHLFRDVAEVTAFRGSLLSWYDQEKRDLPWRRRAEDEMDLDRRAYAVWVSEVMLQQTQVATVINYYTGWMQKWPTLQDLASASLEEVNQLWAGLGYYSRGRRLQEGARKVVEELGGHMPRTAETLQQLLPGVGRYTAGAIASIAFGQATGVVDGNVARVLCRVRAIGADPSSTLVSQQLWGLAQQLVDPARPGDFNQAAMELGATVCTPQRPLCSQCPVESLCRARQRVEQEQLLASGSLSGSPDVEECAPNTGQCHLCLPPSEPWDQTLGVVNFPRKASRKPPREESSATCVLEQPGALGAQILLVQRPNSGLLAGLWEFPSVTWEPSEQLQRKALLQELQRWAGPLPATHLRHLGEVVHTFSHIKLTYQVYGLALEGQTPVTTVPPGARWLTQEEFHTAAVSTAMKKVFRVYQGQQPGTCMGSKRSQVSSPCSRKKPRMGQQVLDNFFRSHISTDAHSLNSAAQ

# Variants of: B1
# assay comment: 8OG:A repair function score (normalized; synonymous = 0, nonsense = -1) (normalized log-likelihood score); higher = more repair activity (WT-like);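 also: cells sorted at 72 h after reporter transfection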
# assay conditions: with 8OG:A DNA repair reporter (GFP) in HEK-293 MUTYH KO cells
observation type: 8OG:A repair function score

| variant designation | experimental value |
| --- | --- |
| V107G | -0.0408 |
| A177R | -0.127 |
| D94F | -0.287 |
| P267T | -0.202 |
| L40F | 0.134 |
| S483D | 0.0208 |
| G401N | 0.111 |
| L295Y | -0.0185 |
| F68T | -0.393 |
| R279S | -0.377 |
| R364T | -0.411 |
| Q470V | -0.00474 |
| G444C | -0.242 |
| P267A | -0.131 |
| P306C | -0.044 |
| A63W | -0.00488 |
| V500K | -0.0181 |
| R154I | -0.971 |
| C347R | -1.15 |
| D208F | -1.04 |
| G434E | 0.0175 |
| P365R | -0.0845 |
